target: FLT3 ITD, D835V (Homo sapiens, UniProt P36888, D835V/ITD); assay: DiscoverX KINOMEscan competition binding assay, FLT3 ITD, D835V
READOUT NAME: pKd
A value of pKd is the negative decimal logarithm of a concentration given in moles per litre.

Give the measured pKd of `COc1cc2ncc(-c3cccc(N[C@H]4CNC[C@@H]4F)n3)n2nc1C1CC1` .
10.15

----------
target: FLT3 (Homo sapiens, UniProt P36888); construct: purchased Reaction Biology (RBC HotSpot Kinase Assay); test: RBC HotSpot Kinase Assay, FLT3; format: biochemical
READOUT NAME: IC50 (pM)
Use pM as the unit, but write only the number.

- COMPOUND STRUCTURE: "Cc1oncc1-c1ccc2ncc(-c3cccc(NC4CC5(CNC5)C4)n3)n2n1"
  SYSTEM TESTED: "FLT3 (Homo sapiens, UniProt P36888)"
  QUANTITATIVE READOUT: 5000

Give the measured IC50 of `c1cc(NC2CC3(CNC3)C2)nc(-c2cnc3ccc(-c4cn[nH]c4)nn23)c1` .
500
